target: CXCR7 (Homo sapiens); construct: host or cells: CHO (PathHunter CHO-CXCR7 β-arrestin cells); assay: CXCR7 β-arrestin recruitment assay (PathHunter CHO-CXCR7, DiscoverX), agonistic assay; format: cell-based; details: agonistic assay; CHO CXCR7 β-arrestin cells; 90 min at 37° C.; chemiluminescence; read-out: β-Arrestin EC50
Sequence (P25106 whole entry): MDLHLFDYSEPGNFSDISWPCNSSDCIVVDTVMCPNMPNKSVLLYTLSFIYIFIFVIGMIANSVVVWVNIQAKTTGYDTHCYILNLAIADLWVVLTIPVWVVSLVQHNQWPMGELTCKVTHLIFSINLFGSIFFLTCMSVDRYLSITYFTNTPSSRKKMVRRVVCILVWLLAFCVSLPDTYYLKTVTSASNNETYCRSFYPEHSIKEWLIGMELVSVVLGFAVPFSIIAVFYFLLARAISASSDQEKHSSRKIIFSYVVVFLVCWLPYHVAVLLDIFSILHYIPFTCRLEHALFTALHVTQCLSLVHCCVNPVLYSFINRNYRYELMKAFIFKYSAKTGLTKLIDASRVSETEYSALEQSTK
Non-standard residues stand in square brackets, D forms with d. Residues, ends and D or L forms follow the SMILES beside them. *: point of attachment. dPro(4S-NH2) = N[C@@H]1CN[C@@H](C(=O)O)C1; Tic = O=C(O)[C@@H]1Cc2ccccc2CN1; Chg = N[C@H](C(=O)O)C1CCCCC1; 2Pyrimidinyl = c1cnc(*)nc1; Orn = NCCC[C@H](N)C(=O)O
Measured property: EC50 (nM)

- Compound: "N=C(N)NCCC[C@@H]1NC(=O)[C@@H]2Cc3ccccc3CN2C(=O)[C@H]2C[C@H](N)CN2C(=O)[C@H](CCCNC(=N)N)NC(=O)[C@H](Cc2c[nH]c3ccccc23)NC(=O)[C@@H](Cc2ccccc2)NC1=O [compound 40] (cyclo(R[dF]WR[dPro(4S-NH2)][Tic]))"
  Experimental target: "CXCR7 (Homo sapiens)"
  Readout unit: "nM"
  Reported result: 13.1
- Compound: "CC[C@H](C)[C@@H]1NC(=O)[C@H]([C@@H](C)O)NC(=O)[C@H]2CCCN2C(=O)[C@H](Cc2c[nH]c3ccccc23)NC(=O)[C@H](CCCNC(=N)N)NC(=O)[C@@H](Cc2c[nH]cn2)NC1=O [compound 12, cyclo(-Ile-^DHis-Arg-Trp-^DPro-Thr-)] (cyclo(I[dH]RW[dP]T))"
  Experimental target: "CXCR7 (Homo sapiens)"
  Readout unit: "nM"
  Reported result: 546
- Compound: "C[C@@H](O)[C@@H]1NC(=O)[C@H]2CCCN2C(=O)[C@H](Cc2c[nH]c3ccccc23)NC(=O)[C@H](CCCNC(=N)N)NC(=O)[C@@H](CCCNC(=N)N)NC(=O)[C@H](C2CCCCC2)NC1=O [compound 59, cyclo(-Chg-^DArg-Arg-Trp-^DPro-Thr-)] (cyclo([Chg][dR]RW[dP]T))"
  Experimental target: "CXCR7 (Homo sapiens)"
  Readout unit: "nM"
  Reported result: 6.7
- Compound: "CC[C@H](C)[C@@H]1NC(=O)[C@H]([C@@H](C)O)NC(=O)[C@H]2CCCN2C(=O)[C@H](Cc2c[nH]c3ccccc23)NC(=O)[C@H](CCCNc2ncccn2)NC(=O)[C@@H](CCCNC(=N)N)NC1=O [Ex. 68] (cyclo(I[dR][Orn](2Pyrimidinyl)W[dP]T))"
  Experimental target: "CXCR7 (Homo sapiens)"
  Readout unit: "nM"
  Reported result: 453
